Target: Rap guanine nucleotide exchange factor 3 (Homo sapiens)
Assay: Counterscreen qHTS for antagonist of cAMP-regulated guanine nucleotide exchange factor 3 (EPAC1) (AID 1645888);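 further: fluorescence loss as bound BODIPY-GDP is released from Rap1B; % of control where 0% means no effect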
Details: Rap1B-BODIPY-GDP nucleotide exchange, fluorescence; series mostly up to 154 µM
Inconclusive results are not listed. Active and inactive are the calls of the source. The call rests on the fitted dose curve; in most records, active means well fitted inhibition curve with a large enough effect; inconclusive means small, poorly fitted or top-dose-only effect; inactive means no such curve, though single readings can be large or run the other way.
quantity.name: activity change, negative = inhibition

COc1ccc(NC(=O)COC(=O)CCCOc2ccc(Cl)cc2Cl)cc1Cl    inactive
COc1ccc(OC)c(C(=O)c2ccc(Cl)cc2)c1    5.43% [at 30.8 µM] (inactive)
O=C1/C(=C\c2cc([N+](=O)[O-])ccc2O)SC(=S)N1Cc1ccc(Cl)cc1    inactive
CCCC1=C/C(=C/c2ccc(-c3ccccc3OC)o2)C(=O)O1    -9.78% [at 30.8 µM] (inactive)
O=C(C1CCN(S(=O)(=O)N2CCOCC2)CC1)N1CCN(c2ccccc2)CC1    inactive
COC(=O)C1=CN(Cc2cccs2)C=C(C(=O)OC)C1c1cccc(O)c1    inactive

Query block: What value of activity change, negative = inhibition has been recorded for this entry: Cc1cc(C)c2c(CN3CCC(C)CC3)cc(=O)oc2c1
Result block: 10.9% [at 30.8 µM] (inactive)

Query block: Next entry: N#C/C(=C\c1ccc(N2CCOCC2)o1)c1nc2ccccc2[nH]1
Result block: inactive

Query block: Next entry: O=c1[nH]c(C2CCN(S(=O)(=O)c3ccccc3F)CC2)nc2c1nnn2Cc1ccc(F)cc1
Result block: inactive

Query block: Next entry: O=C(c1ccc(O)c(Br)c1)c1cc(Br)ccc1O
Result block: -2.96% [at 30.8 µM] (inactive)

Query block: Next entry: CCOc1ccc(-c2nn(-c3ccccc3)cc2/C=C2\SC(=S)N(C3CCS(=O)(=O)C3)C2=O)cc1 (stereo unspecified)
Result block: inactive

Query block: Next entry: Cc1ccc(C(=O)Nc2cccc(-c3ccc(N4CCOCC4)nn3)c2)cc1C
Result block: inactive
